molecular target: STING HAQ variant (Homo sapiens, UniProt Q86WV6, G230A/R293Q/R71H); construct: host or cells: HEK-Blue ISG KO-STING cells (Invivogen, hkb-kostg); test: SEAP reporter assay in HEK-Blue ISG KO-STING cells transfected with STING HAQ variant (Method 1); type: cell-based; conditions: 1 ng STING vector, compound 5 uM, 24 h, SEAP signal vs 0.5% DMSO
Sequence (Q86WV6 whole entry R71H/G230A/R293Q): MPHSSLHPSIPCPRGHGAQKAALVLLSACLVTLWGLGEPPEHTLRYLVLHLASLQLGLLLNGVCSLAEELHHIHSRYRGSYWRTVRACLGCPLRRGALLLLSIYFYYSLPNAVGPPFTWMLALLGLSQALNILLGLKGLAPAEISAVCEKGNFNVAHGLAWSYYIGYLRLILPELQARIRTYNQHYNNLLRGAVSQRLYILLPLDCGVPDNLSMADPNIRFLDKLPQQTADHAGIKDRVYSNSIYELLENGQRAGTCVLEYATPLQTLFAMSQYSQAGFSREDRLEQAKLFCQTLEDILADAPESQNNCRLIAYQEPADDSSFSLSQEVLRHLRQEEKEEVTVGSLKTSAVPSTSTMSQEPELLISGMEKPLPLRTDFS
measured_property: Fold change related to DMSO control HAQ

compound	Fold change related to DMSO control HAQ
CCn1nc(C)cc1C(=O)Nc1nc2cc(C(N)=O)cc(OCCCNS(C)(=O)=O)c2n1CCC[C@H]1COc2cc(C(N)=O)cc3nc(NC(=O)c4cc(C)nn4CC)n1c23 [Example 30]	33.34

Would you mind telling me what Fold change related to DMSO control HAQ value was observed for CCn1nc(C)cc1C(=O)Nc1nc2cc(C(N)=O)cc(OCCCN(C)C(C)=O)c2n1CCC[C@H]1COc2cc(C(N)=O)cc3nc(NC(=O)c4cc(C)nn4CC)n1c23 [Example 27] ?
45.86

What value of Fold change related to DMSO control HAQ has been reported for the following compound? CCn1nc(C)cc1C(=O)Nc1nc2cc(C(N)=O)cc(OCCOCCOC)c2n1CCC[C@H]1COc2cc(C(N)=O)cc3nc(NC(=O)c4cc(C)nn4CC)n1c23 [Example 25]
46.51

Please report the recorded Fold change related to DMSO control HAQ for CCn1nc(C)cc1C(=O)Nc1nc2cc(C(N)=O)cc(OCCCNC(=O)CN(C)C)c2n1CCC[C@H]1COc2cc(C#N)cc3nc(NC(=O)c4cc(C)nn4CC)n1c23 [Example 15] .
11.61

Quick one: Fold change related to DMSO control HAQ of CCn1nc(C)cc1C(=O)Nc1nc2cc(C(N)=O)cc(OCCCS(C)(=O)=O)c2n1CCC[C@H]1COc2cc(C(N)=O)cc3nc(NC(=O)c4cc(C)nn4CC)n1c23 [Example 37] ?
23.71

Sample CCn1nc(C)cc1C(=O)Nc1nc2cc(C(N)=O)cc(OCCCN)c2n1CCC[C@H]1COc2cc(C(N)=O)cc3nc(NC(=O)c4cc(C)nn4CC)n1c23.Cl [Example 14] — what was its Fold change related to DMSO control HAQ?
16.68

I have this compound here, CCn1nc(C)cc1C(=O)Nc1nc2cc(C(N)=O)cc(OCCCN(C)C)c2n1CCC[C@H]1COc2cc(C(N)=O)cc3nc(NC(=O)c4cc(C)nn4CC)n1c23 [Example 18] , and I need its recorded Fold change related to DMSO control HAQ.
40.66

Can you share its Fold change related to DMSO control HAQ? I mean this compound: CCn1nc(C)cc1C(=O)Nc1nc2cc(C(N)=O)cc(OCCCN3CCOCC3)c2n1CCC[C@H]1COc2cc(C(N)=O)cc3nc(NC(=O)c4cc(C)nn4CC)n1c23 [Example 24]
56.42

// returns reported Fold change related to DMSO control HAQ for input CCn1nc(C)cc1C(=O)Nc1nc2cc(C(N)=O)cc(OCC[C@@H](O)CO)c2n1CCC[C@H]1COc2cc(C(N)=O)cc3nc(NC(=O)c4cc(C)nn4CC)n1c23 [Example 38]
18.05

What value of Fold change related to DMSO control HAQ has been reported for the following compound? CCn1nc(C)cc1C(=O)Nc1nc2cc(C(N)=O)cc(OCCCN(C)C(=O)CN3CCOCC3)c2n1CCC[C@H]1COc2cc(C(N)=O)cc3nc(NC(=O)c4cc(C)nn4CC)n1c23 [Example 29]
27.10

Entry source: patent US12364702B2
